Source listed as paper PMC7466295.

# experiment-description: Postprandial plasma kinetics of monoterpenes after a single dose of Mastiha Oil (GC-MS-MS)
# Format: in vivo, human
# run-conditions: male, oral; human plasma, 2 h after 1 mL MO; mean ± SEM
recorded-metric: concentration at 2 h (ng/mL)
Respond with the bare value in ng/mL.

Notebook: C=CC(=C)CCC=C(C)C [Myrcene, myrcene] , concentration at 2 h read as 906

* * *

# experiment-description: Postprandial plasma kinetics of monoterpenes after a single dose of Mastiha Oil (GC-MS-MS)
# Type: in vivo, human
# run-conditions: male, oral; human plasma, 0.5 h after 1 mL MO; mean ± SEM
recorded-metric: concentration at 0.5 h (ng/mL)
Respond with the bare value in ng/mL.

Notebook: C=CC(=C)CCC=C(C)C , concentration at 0.5 h read as 775

* * *

Documented Tmax across a set of compounds
# experiment-description: Postprandial plasma kinetics of monoterpenes after a single dose of Mastiha Oil (GC-MS-MS)
# Assay type: in vivo, human
# run-conditions: male; human plasma, healthy males, 1 mL MO oral single dose after overnight fasting; mean ± SEM

As a guide, the following entries are already answered.
{"compound": "CC1=CCC2CC1C2(C)C (stereo not drawn)", "recorded-metric": "Tmax", "readout-value": "3.8 h"}
{"compound": "C=CC(=C)CCC=C(C)C", "recorded-metric": "Tmax", "readout-value": "2.2 h"}

Notebook: C=C1CCC2CC1C2(C)C (stereo not drawn) , Tmax read as 3.6 h
